# credit: patent US12624112

Biological target: T1, Human ST2-his (human, UniProt Q01638 19-328)
T1 construct: Expressed in CHO-K1; also called human ST2 fused with a 6-histidine tag at the C-terminus
T1 sequence: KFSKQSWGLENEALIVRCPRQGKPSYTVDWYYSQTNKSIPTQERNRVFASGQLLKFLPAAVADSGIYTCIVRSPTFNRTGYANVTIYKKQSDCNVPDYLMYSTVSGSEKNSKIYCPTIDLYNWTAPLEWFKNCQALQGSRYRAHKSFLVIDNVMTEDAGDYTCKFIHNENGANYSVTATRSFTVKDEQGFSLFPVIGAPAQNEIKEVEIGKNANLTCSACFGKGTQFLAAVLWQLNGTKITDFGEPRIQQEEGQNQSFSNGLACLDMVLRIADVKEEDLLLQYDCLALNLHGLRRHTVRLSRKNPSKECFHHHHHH
Assay: SPR Biacore X100, antibody on protein A, ST2-his analyte
REPORTED ENDPOINT: kon (M⁻¹ s⁻¹)
# output: bare number, implied unit M⁻¹ s⁻¹

Ask: Determine its reported kon: Control antibody CNTO7160 (antibody, human IgG4 S228P, kappa, V domains shown) VH: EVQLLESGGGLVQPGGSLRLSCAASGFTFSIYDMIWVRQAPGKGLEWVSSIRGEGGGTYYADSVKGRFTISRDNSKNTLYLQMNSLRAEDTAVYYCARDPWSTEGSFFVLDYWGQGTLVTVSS VL: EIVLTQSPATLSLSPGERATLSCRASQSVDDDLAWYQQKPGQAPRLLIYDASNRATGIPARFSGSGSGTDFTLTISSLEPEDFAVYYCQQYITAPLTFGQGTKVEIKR
Result: 827000

Ask: Determine its reported kon: 5888-153H1+L2 (antibody, V domains shown, murine antibody) VH: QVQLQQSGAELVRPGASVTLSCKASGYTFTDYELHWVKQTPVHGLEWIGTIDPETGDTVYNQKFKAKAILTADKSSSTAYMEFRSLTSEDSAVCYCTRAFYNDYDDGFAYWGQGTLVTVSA VL: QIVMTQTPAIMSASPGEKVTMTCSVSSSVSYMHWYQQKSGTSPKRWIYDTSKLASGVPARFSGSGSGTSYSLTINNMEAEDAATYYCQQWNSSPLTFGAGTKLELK
Result: 9.17e+06

Ask: Determine its reported kon: 5886-156H+L (antibody, V domains shown, murine antibody) VH: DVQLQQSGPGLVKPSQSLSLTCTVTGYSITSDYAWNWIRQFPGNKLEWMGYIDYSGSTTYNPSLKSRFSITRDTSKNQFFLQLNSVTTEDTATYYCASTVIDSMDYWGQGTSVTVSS VL: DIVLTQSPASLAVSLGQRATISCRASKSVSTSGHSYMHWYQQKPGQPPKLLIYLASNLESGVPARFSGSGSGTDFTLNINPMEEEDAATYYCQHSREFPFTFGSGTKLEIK
Result: 2.37e+06

Ask: Determine its reported kon: 5887-537H3+L1 (antibody, V domains shown, murine antibody; also called 5887-537H3H+L1) VH: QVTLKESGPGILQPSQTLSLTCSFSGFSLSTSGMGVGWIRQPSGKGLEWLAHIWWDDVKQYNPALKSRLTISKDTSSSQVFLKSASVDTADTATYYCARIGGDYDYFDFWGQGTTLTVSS VL: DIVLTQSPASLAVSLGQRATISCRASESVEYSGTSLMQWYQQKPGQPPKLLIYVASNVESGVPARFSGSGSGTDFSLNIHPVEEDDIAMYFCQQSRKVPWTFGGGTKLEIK
Result: 5.01e+06

Ask: Determine its reported kon: 5888-379H1+L2 (antibody, V domains shown, murine antibody) VH: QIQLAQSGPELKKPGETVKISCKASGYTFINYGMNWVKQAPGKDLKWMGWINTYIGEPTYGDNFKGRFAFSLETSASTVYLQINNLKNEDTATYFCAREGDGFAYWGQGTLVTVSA VL: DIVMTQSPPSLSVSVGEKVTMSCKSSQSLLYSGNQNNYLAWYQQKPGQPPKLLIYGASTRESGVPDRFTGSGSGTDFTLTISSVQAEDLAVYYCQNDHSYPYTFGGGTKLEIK
Result: 957000

Ask: Determine its reported kon: 5888-116H1+L1 (antibody, V domains shown, murine antibody) VH: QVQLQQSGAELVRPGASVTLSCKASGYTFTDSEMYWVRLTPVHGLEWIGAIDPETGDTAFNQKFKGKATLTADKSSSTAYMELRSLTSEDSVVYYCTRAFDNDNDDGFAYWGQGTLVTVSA VL: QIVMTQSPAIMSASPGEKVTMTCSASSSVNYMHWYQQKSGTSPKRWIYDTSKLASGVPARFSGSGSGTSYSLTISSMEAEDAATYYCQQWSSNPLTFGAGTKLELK
Result: 9.87e+06

Ask: Determine its reported kon: 5888-357H+L (antibody, V domains shown, murine antibody) VH: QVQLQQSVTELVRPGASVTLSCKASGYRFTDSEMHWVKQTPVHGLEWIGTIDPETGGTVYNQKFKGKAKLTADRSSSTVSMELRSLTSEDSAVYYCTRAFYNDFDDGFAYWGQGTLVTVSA VL: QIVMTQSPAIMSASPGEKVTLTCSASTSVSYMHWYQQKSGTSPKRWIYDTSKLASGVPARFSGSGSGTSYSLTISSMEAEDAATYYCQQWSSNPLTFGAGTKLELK
Result: 4.38e+06

Ask: Determine its reported kon: 5887-41H+L (antibody, V domains shown, murine antibody) VH: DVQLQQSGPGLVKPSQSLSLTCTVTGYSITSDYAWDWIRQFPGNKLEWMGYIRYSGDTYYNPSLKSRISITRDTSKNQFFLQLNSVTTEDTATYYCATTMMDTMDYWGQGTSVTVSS VL: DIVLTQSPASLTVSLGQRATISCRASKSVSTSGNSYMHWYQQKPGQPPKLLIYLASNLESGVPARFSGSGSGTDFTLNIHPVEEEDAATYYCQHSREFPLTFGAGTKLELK
Result: 1.1e+06
